// provenance: PubChem BioAssay AID1159580

Experiment Notes: chemical genetic growth profiling, strain panel (AID 1159580);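 further: tested at 20 µM; growth read once vehicle control cultures reached saturation at 30 °C; 1 = growth at the plate median or of vehicle wells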
Condition Label: S. cerevisiae deletion strains, growth OD, locus YLR039C, strain RIC1
Screen size: about 5,500 compounds; about 2,000 (36%) were called active. Roughly 18% stayed inconclusive and do not appear here. No stated cut-off is given here; in the data, active means normalized growth mostly below about 0.91 (no sharp cut-off); inconclusive means no clear call, values can overlap the other calls; inactive means mostly above about 0.92. The list shows a part of the results.
A correct response names exactly one class from active, inactive

[Q] Tell me the assay call for Cc1ccccc1N1C(=O)c2cc(S(N)(=O)=O)c(Cl)cc2NC1C (stereo unspecified) please.
[A] inactive

###

Experiment Notes: chemical genetic growth profiling, strain panel (AID 1159580)
Condition Label: S. cerevisiae deletion strains, growth OD, locus YLR133W, strain CKI1, stronger effect = lower value
In all, about 5,500 compounds went through this assay and about 2,000 (36%) were called active. Roughly 18% stayed inconclusive and do not appear here. The list shows a part of the results.
Result Type: normalized growth

Completed entries (count: 5):
- Compound: "O=S(=O)(c1cc(Cl)ccc1Cl)N1CCc2ccccc2C1"
  normalized growth: "1 (inactive)"
- Compound: "COc1ccccc1N1CCN(C(=O)C(C)c2ccc(CC(C)C)cc2)CC1 (stereo not given)"
  normalized growth: "0.943 (inactive)"
- Compound: "Clc1cccc(Cl)c1C1CC(c2ccccc2)=Nc2ccccc2S1 (stereo not given)"
  normalized growth: "0.977 (inactive)"
- Compound: "N/C(=N/OC(=O)c1ccc([N+](=O)[O-])cc1)c1c(Cl)cccc1Cl"
  normalized growth: "0.898 (inactive)"
- Compound: "O=C(NNc1cc(C(F)(F)F)cc(C(F)(F)F)c1)c1cnc2n(c1=O)CCS2"
  normalized growth: "1.01 (inactive)"

[Q] Consider the compound Cc1ccc(Sc2ncccc2NS(=O)(=O)c2ccc(Cl)cc2)cc1 and give its measured normalized growth.
[A] 0.894 (inactive)

[Q] # iterate: CCCCCCCCCCCCSc1ncn[nH]1
[A] 0.566 (active)

[Q] Similarly, COc1ccc(Br)c(C(=O)/C(C#N)=C/c2cccs2)c1 ?
[A] 0.224 (active)

[Q] Lookup O=C(NC(=S)NNc1ncc(C(F)(F)F)cc1Cl)c1cccs1
[A] 0.251 (active)

[Q] Same read-out for ONC(=Nc1ccccc1Cl)c1ccccc1Cl ?
[A] 0.841 (inactive)

[Q] N#C/C(N=Cc1cc(Cl)cc(Cl)c1O)=C(\C#N)N=Cc1cc(Cl)cc(Cl)c1O , same question.
[A] 0.52 (active)

[Q] N/C(=N/OC(=O)c1cnn(-c2ccc([N+](=O)[O-])cc2)c1C(F)(F)F)c1ccc(Cl)cc1 , same question.
[A] 0.881 (inactive)

[Q] Entry to check: Cc1ccc(OS(=O)(=O)c2c(Cl)sc(Cl)c2Br)c([N+](=O)[O-])n1
[A] 0.968 (inactive)

[Q] Entry FC(F)(F)Oc1ccc(OCc2n[nH]c(=S)n2-c2ccc(Cl)cc2)cc1 please
[A] 1 (inactive)

[Q] What do you have for Cc1cc(Br)c(O)c(/C=N\NC(=S)NC(C)(C)C)c1 ?
[A] 0.917 (inactive)

[Q] Okay, and O=c1cc(CSc2ccc(Cl)cc2)c2ccc(O)cc2o1 ?
[A] 0.747 (inactive)

###

Experiment Notes: chemical genetic growth profiling, strain panel (AID 1159580)
Condition Label: S. cerevisiae deletion strains, growth OD, locus YDR502C, strain sam2, stronger effect = lower value
Hit rate of the full screen: of about 5,500 compounds, about 2,000 (36%) were called active. Another 18% or so got no clear call; they are omitted. The list shows a part of the results.
Assign labels as follows, please: condition met for normalized growth below 1; condition not met for normalized growth equal to or exceeding 1.

Solved cases (2 shown):
- Compound: "O=c1c(O)cccc2c(C3Oc4cc(O)cc(O)c4CC3O)cc(O)c(O)c12 (stereo unspecified)"
  Label Value: "condition met"
- Compound: "Cc1ccc(C(C)C)c(O)c1C(=O)O"
  Label Value: "condition met"

Let us examine a further case.
[Q] Field: below-cutoff. Rule: recorded normalized growth strictly less than 1. Subject: O=c1c(O)cc([C@H]2Oc3cc(O)cc(O)c3C[C@H]2O)cc2c([C@H]3Oc4cc(O)cc(O)c4C[C@H]3O)cc(O)c(O)c12
[A] condition not met

###

Here the recorded normalized growth is given for each entry.
Experiment Notes: chemical genetic growth profiling, strain panel (AID 1159580);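 further: tested at 20 µM; growth read once vehicle control cultures reached saturation at 30 °C; 1 = growth at the plate median or of vehicle wells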
Condition Label: S. cerevisiae deletion strains, growth OD, locus YBR021W, strain FUR4, stronger effect = lower value
Out of some 5,500 compounds screened, about 2,000 (36%) were called active. Inconclusive results (about 18%) are left out. The list shows a part of the results.
Give a plain numeric answer without units written out.

[Q] Entry C[C@]12CCC3C(CC[C@]4(O)C[C@@H](O)CC[C@]34C=O)[C@@]1(O)CCC2C1=CC(=O)OC1 (some centres not stated) has what normalized growth?
[A] 1

[Q] Now the molecule CCCc1nn(C)c2c(=O)[nH]c(-c3cc(S(=O)(=O)N4CCN(C)CC4)ccc3OCC)nc12
[A] 1.05

[Q] Same question for COC1C(O)C(O[C@H]2CC[C@]3(C=O)C4C(CC[C@]3(O)C2)[C@@]2(O)CC[C@H](C3=CC(=O)OC3)[C@@]2(C)C[C@H]4OC(C)=O)OC(C)C1OC(C)=O (some centres not stated) please.
[A] 1.02

[Q] What do you get for CC12CCC3C(CCC4(O)CC(O)CCC34/C=N/NC(N)=O)C1(O)CCC2C1=CC(=O)OC1 (configuration not stated) ?
[A] 1.05

[Q] Next up: CC1=C2C(O)C(=O)OC3CC4C(C)(C)C(=O)C=C[C@]4(C)C(CC1)[C@]23C (some centres not stated)
[A] 0.994

[Q] Another: Cc1ccc(C(C)C)c(O)c1C(=O)O
[A] 0.912

[Q] Same again, this time with C[C@H]1OC(O[C@H]2[C@@H](O)CC(O[C@H]3[C@@H](O)C[C@H](O[C@H]4CC[C@]5(C)C6CC[C@]7(C)[C@@H](C8=CC(=O)OC8)[C@@H](O)C[C@]7(O)[C@@H]6CC[C@@H]5C4)O[C@@H]3C)O[C@@H]2C)C[C@H](O)C1O (some centres not stated)
[A] 0.986

###

Experiment Notes: chemical genetic growth profiling, strain panel (AID 1159580);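 further: tested at 20 µM; growth read once vehicle control cultures reached saturation at 30 °C; 1 = growth at the plate median or of vehicle wells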
Condition Label: S. cerevisiae deletion strains, growth OD, locus YIR030C, strain dcg1
About 2,000 (36%) of roughly 5,500 compounds were called active. About 18% were inconclusive and are not listed. No stated cut-off is given here; in the data, active means normalized growth mostly below about 0.91 (no sharp cut-off); inconclusive means no clear call, values can overlap the other calls; inactive means mostly above about 0.92. The list shows a part of the results.
Return exactly one item of active, inactive

Completed entries (count: 9):
- Molecule: "CC(=O)N1CCCC1C(=O)O (stereo not given)"
  Label Value: "inactive"
- Molecule: "C[N+]1(C)C[C@H](O)[C@H](C(=O)[O-])C1"
  Label Value: "inactive"
- Molecule: "O=c1c(O)cccc2c(C3Oc4cc(O)cc(O)c4CC3O)cc(O)c(O)c12 (stereo not given)"
  Label Value: "active"
- Molecule: "CC1=C2C(O)C(=O)OC3CC4C(C)(C)C(=O)C=C[C@]4(C)C(CC1)[C@]23C (stereo not given in full)"
  Label Value: "inactive"
- Molecule: "CO[C@@H]1C[C@H](O[C@H]2CC[C@]3(C)C4CC[C@]5(C)[C@@H](C6=CC(=O)OC6)CC[C@]5(O)[C@@H]4CC[C@]3(O)C2)O[C@H](C)[C@@H]1O (stereo not given in full)"
  Label Value: "inactive"
- Molecule: "O=C(O)CN(CCN(CC(=O)O)CC(=O)O)CC(=O)O"
  Label Value: "inactive"
- Molecule: "COC1=CC(C)[C@@H]2C[C@H]3OC(=O)C[C@H]4C(C)=C(OC)C(=O)C([C@@]34C)[C@@]2(C)C1=O (stereo not given in full)"
  Label Value: "inactive"
- Molecule: "NC(=O)c1ccc([N+](=O)[O-])cc1Cl"
  Label Value: "inactive"
- Molecule: "Nc1ccc(S(=O)(=O)Nc2ncccn2)cc1"
  Label Value: "inactive"

Now take the following molecule into account.
[Q] GET /call?item= COC(=O)NC(=S)Nc1ccccc1NC(=S)NC(=O)OC returns the recorded outcome of this test.
[A] inactive

###

Experiment Notes: chemical genetic growth profiling, strain panel (AID 1159580);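 further: tested at 20 µM; growth read once vehicle control cultures reached saturation at 30 °C; 1 = growth at the plate median or of vehicle wells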
Condition Label: S. cerevisiae deletion strains, growth OD, locus YDR069C, strain doa4, stronger effect = lower value
The whole screen tested about 5,500 compounds, of which about 2,000 (36%) were called active. Another 18% or so got no clear call; they are omitted. The list shows a part of the results.
Result Type: normalized growth
Hey, just send me the number, nothing else.

- Compound: "C=CCSC[C@@H](N)C(=O)O"
  normalized growth: 0.994

[Q] Using the record for NCC(O)CC(=O)O (stereo not drawn) , report its normalized growth.
[A] 1.04

[Q] Thanks! And COC(=O)N/N=C\c1c[n+]([O-])c2ccccc2[n+]1[O-] ?
[A] 0.978

[Q] Can you check CCCc1nc(C)c2c(=O)[nH]c(-c3cc(S(=O)(=O)N4CCN(CC)CC4)ccc3OCC)nn12 next?
[A] 0.951
